# testName: amyloid nucleation score (Sup35N fusion, yeast selection) (log enrichment); library NNK2; higher = more nucleation; inactive = no reads after selection;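 further: zero at mode of non-aggregating sequences after 7 days selection at 30°C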
measuredQuantity: amyloid nucleation score

FAFIYVIT ... inactive
FSLLTTFSLTNGGPAFLMIR ... inactive
AGLIRCLLRGTCNRNFFSLY ... inactive
RSNFIQDSLSYFDILAIRRG ... inactive
TNRGSQNGLMFFDRSWKGYG ... -0.467

Let us examine a further case.
// sample "LFGNWSFVVNRCVVSLKLM" , its amyloid nucleation score was inactive

---

# testName: amyloid nucleation score (Sup35N fusion, yeast selection) (log enrichment); library NNK3; higher = more nucleation; inactive = no reads after selection
measuredQuantity: amyloid nucleation score

Worked examples, 6 substances total:
LLVMSQVKYRHMSAAPA ... inactive
CSCWFFLVHNFNNIYRILWK ... inactive
GLTVCTSYLSISAYDMYANL ... 1.29
NGSHDRGVPAELSAFKG ... inactive
SNLHMILDGWEMCALHAAMG ... inactive
SASRKNNQDVCGNCAVVGEF ... inactive

For this substance ( "FAVTLNSWRARFRFMDRNDM" ), measured amyloid nucleation score is 0.682

amyloid nucleation score recorded for this substance, "YKIYIFFGTVYMGVDRDQIG" , is 2.89

Short answer for "RAFFLVIAIFNKVEVVSGST" : amyloid nucleation score was 1.15

---

# testName: amyloid nucleation score (Sup35N fusion, yeast selection) (log enrichment); library NNK2; higher = more nucleation; inactive = no reads after selection
measuredQuantity: amyloid nucleation score
Format: numeric value only, no unit, no commentary.

NMFNPFRFRISNYEVCSNMC ... 6.26

Lookup result for "FNRFLKYMPSSWLWQGCSVQ" ; measured amyloid nucleation score: -0.451

amyloid nucleation score in this record for "QCLQCGP" : -0.553

For this substance ( "SKGSWIDVSYDLV" ), measured amyloid nucleation score is -0.132

---

# testName: amyloid nucleation score (Sup35N fusion, yeast selection) (log enrichment); library NNK2; higher = more nucleation; inactive = no reads after selection
measuredQuantity: amyloid nucleation score
Give only the figure.

Worked cases, answers included:
TVLFKGLRYRRNFKFGTQTT ... -0.056
FLGYIKSLCMYYRRSGMINA ... -2.17
FSDFGMSLRISAKVEWIAMG ... -1.59
CTRRDFFGQTTAHVSVWCTG ... 4.33
INDSEVMRICLPVGFGHLEG ... 2.45

// recorded amyloid nucleation score for "LRGHRPFLVY" : -0.02

Short answer for "LSMELNGYYILVCDLDFVTE" : amyloid nucleation score was 1.5

The value of amyloid nucleation score measured for the substance "WSPYEEPR" turned out to be 0.298

Measured amyloid nucleation score of "KVIPVALNTRIAWGTHRLMM" : 0.958

Lab book: amyloid nucleation score of "ACLFWIYARRHRLAWFVFIW" noted as -0.37

Memo: "KWYFRSWRLMLYSVKFSFRI" , reported amyloid nucleation score: -0.693

Sure, the documented amyloid nucleation score for "WRCDLSNPTFAMYVDAVWAS" is 1.16

---

# testName: amyloid nucleation score (Sup35N fusion, yeast selection) (log enrichment); library NNK2; higher = more nucleation; inactive = no reads after selection
measuredQuantity: amyloid nucleation score
Write the number on its own, no unit after it.

Sample records with amyloid nucleation score:
FIPYKYAVHSS ... 0.166
VYAYRTEFQRW ... 0.886
GGGHMFFAGQ ... -1.28
SKDMCRRCCIRNLRRMSDSN ... -0.443

Lookup result for "SLYKHSTHWRLCSTMAIVKP" ; measured amyloid nucleation score: 0.953

Looking up "GVFASSLLVFQLFFISPSNG" , I found its amyloid nucleation score recorded as 6.18

// "IIGAWKM" : amyloid nucleation score value = 0.992

Entry "CWRFVSCNTNYNWTMQGFYY" — recorded amyloid nucleation score = -1.38

Short answer for "RVPIWRANIGKGSSIMPIFC" : amyloid nucleation score was 0.009
